# key: entry, value: growth at 10 µM
System: SNB-19
Assay: Growth inhibition of human SNB19 cells assessed as cell growth at 10 uM incubated for 48 hrs by sulforhodamine B assay relative to control
Assay type: functional
Conditions: SNB-19, 48 h, read-out: Activity

Reference set, count: 5
>  <structureAsSmiles>
Cc1cccc(Nc2ncnc3oc(C)c(C(=O)NCCN4CCOCC4)c23)c1

>  <growth at 10 µM>
91%

$$$$
>  <structureAsSmiles>
CCOC(=O)c1c(C)oc2ncnc(Nc3cccc(F)c3)c12

>  <growth at 10 µM>
93.7%

$$$$
>  <structureAsSmiles>
CCOC(=O)c1c(C)oc2ncnc(Nc3ccc(OCc4ccc(Cl)c(Cl)c4)cc3)c12

>  <growth at 10 µM>
103%

$$$$
>  <structureAsSmiles>
CCOC(=O)c1c(C)oc2ncnc(Nc3ccc(OCc4ccc(Cl)cc4)cc3)c12

>  <growth at 10 µM>
111%

$$$$
>  <structureAsSmiles>
CCOC(=O)c1c(C)oc2ncnc(Nc3ccc(F)cc3)c12

>  <growth at 10 µM>
91.4%

$$$$

Q. Data request, read-out growth at 10 µM, for CCOC(=O)c1c(C)oc2ncnc(Nc3ccc(OCc4cccc(C)c4)cc3)c12
A. 99.7%

The measurements presented in this section are drawn from ChEMBL document CHEMBL4251615.
